target: Cone cGMP-specific 3',5'-cyclic phosphodiesterase subunit alpha' (Homo sapiens); assay: Inhibition of full length recombinant human N-terminal GST-tagged PDE6C expressed in baculovirus infected sf9 cells using […] as substrate after 1 hr by fluorescence polarization assay
Sequence (P51160 whole entry): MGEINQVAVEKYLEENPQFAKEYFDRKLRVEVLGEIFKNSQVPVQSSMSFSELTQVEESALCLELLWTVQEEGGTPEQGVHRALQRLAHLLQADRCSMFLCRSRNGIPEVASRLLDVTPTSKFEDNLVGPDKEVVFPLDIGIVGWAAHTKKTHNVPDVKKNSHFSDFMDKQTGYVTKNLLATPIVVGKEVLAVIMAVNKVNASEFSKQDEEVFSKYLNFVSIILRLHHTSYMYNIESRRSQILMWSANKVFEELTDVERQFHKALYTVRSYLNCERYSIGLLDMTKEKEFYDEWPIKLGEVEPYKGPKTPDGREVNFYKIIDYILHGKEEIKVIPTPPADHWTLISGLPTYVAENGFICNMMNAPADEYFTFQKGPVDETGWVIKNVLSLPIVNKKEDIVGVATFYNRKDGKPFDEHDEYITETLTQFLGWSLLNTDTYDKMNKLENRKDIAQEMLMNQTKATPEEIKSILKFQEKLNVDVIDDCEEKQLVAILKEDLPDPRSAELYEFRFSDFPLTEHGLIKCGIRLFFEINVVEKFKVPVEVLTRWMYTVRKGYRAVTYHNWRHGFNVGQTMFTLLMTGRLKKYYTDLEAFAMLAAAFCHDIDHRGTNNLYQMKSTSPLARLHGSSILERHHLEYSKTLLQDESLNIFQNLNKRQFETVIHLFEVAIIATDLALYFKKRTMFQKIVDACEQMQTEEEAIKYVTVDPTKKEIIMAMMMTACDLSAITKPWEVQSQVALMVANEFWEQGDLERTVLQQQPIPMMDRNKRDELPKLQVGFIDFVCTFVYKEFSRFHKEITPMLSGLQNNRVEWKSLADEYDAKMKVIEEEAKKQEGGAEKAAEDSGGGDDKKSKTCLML
Reported IC50 values for the following compounds.

compound	bound_type	IC50, nM
CCc1ccc(C2c3[nH]c4ccccc4c3C(=O)CN2c2ncc(-c3ccc(OC)c(OC)c3)cn2)o1 (configuration not stated)	=	288
CCc1ccc([C@@H]2c3[nH]c4ccccc4c3C[C@@H]3C(=O)N(CC)C(=O)N23)s1	>	1000
CCc1ccc([C@@H]2c3[nH]c4ccccc4c3C[C@@H]3C(=O)N(C)CC(=O)N23)s1	>	1000
CCN1C(=O)[C@@H]2Cc3c([nH]c4ccccc34)[C@@H](c3ccc(C)o3)N2C1=O	=	62
CCc1ccc([C@@H]2c3[nH]c4ccccc4c3C[C@@H]3C(=O)N(CC)C(=O)N23)o1	>	1000
CCCCN1C(=O)[C@H]2Cc3c([nH]c4ccccc34)[C@@H](c3ccc(CC)s3)N2C1=O	>	1000
CCCCN1C(=O)[C@@H]2Cc3c([nH]c4ccccc34)[C@@H](c3ccc(CC)s3)N2C1=O	=	107
